Each recorded value in this set is attributed to ChEMBL document CHEMBL6115036.

System: Stenotrophomonas maltophilia
PROCEDURE SUMMARY: Antimicrobial activity against Stenotrophomonas maltophilia incubated for 16 to 18 hrs by broth dilution assay
Format: functional
CONDITION LABEL: time 16-18 hrs
MIC by entry:
The reply should be a number in µg/mL, with the unit left off.

Some molecules with recorded MIC:
1) CCCCCCNC(=O)c1ccc[n+](CC2=C(C(=O)O)N3C(=O)[C@@H](NC(=O)Cc4ccccc4)[C@H]3SC2)c1.[I-] 64
2) CCCC[n+]1ccc(SCC2=C(C(=O)OCc3ccc(OC)cc3)N3C(=O)[C@@H](NC(=O)Cc4ccccc4)[C@H]3SC2)cc1.O=C([O-])C(F)(F)F 32
3) CC[n+]1ccc(SCC2=C(C(=O)OCc3ccc(OC)cc3)N3C(=O)[C@@H](NC(=O)Cc4ccccc4)[C@H]3SC2)cc1.O=C([O-])C(F)(F)F 16
4) CCCCNC(=O)c1cc[n+](CC2=C(C(=O)O)N3C(=O)[C@@H](NC(=O)Cc4ccccc4)[C@H]3SC2)cc1.[I-] 64
5) CCCCCCCCCC[n+]1ccc(-c2cc[n+](CC3=C(C(=O)[O-])N4C(=O)[C@@H](NC(=O)Cc5ccccc5)[C@H]4SC3)cc2)cc1.O=C([O-])C(F)(F)F 128
6) CCCCCCCC[n+]1ccc(SCC2=C(C(=O)O)N3C(=O)[C@@H](NC(=O)Cc4ccccc4)[C@H]3SC2)cc1.O=C([O-])C(F)(F)F 128
7) CCCCCCCCCCCCCCCC[n+]1ccc(-c2cc[n+](CC3=C(C(=O)OCc4ccc(OC)cc4)N4C(=O)[C@@H](NC(=O)Cc5ccccc5)[C@H]4SC3)cc2)cc1.[I-].[I-] 128

Moving on to another molecule below.
Measured MIC, CCCCCCCC[n+]1ccc(SCC2=C(C(=O)OCc3ccc(OC)cc3)N3C(=O)[C@@H](NC(=O)Cc4ccccc4)[C@H]3SC2)cc1.O=C([O-])C(F)(F)F : 128

###

Test system: Staphylococcus aureus
PROCEDURE SUMMARY: Antimicrobial activity against Staphylococcus aureus incubated for 16 to 18 hrs by broth dilution assay
Assay type: functional
CONDITION LABEL: time 16-18 hrs
Checkbox rule: MIC lower than 0.2 µg/mL = true (1); MIC not lower than 0.2 µg/mL = false (0).

See these solved cases before continuing.
1) CCCCNC(=O)c1cc[n+](CC2=C(C(=O)OCc3ccc(OC)cc3)N3C(=O)[C@@H](NC(=O)Cc4ccccc4)[C@H]3SC2)cc1.[I-] false (0)
2) CC(=O)OCC1=C(C(=O)O)N2C(=O)[C@@H](NC(=O)Cc3cccs3)[C@H]2SC1 false (0)

Is the reported MIC for CCCCCCCCCC[n+]1ccc(C(=O)N[C@@H]2C(=O)N3C(C(=O)OC(c4ccccc4)c4ccccc4)=C(COC(C)=O)CS[C@H]23)cc1.[I-] strictly below 0.2 µg/mL?
false (0)

Is the reported MIC for CCCCCCCCCCCCCCNC(=O)c1cc[n+](CC2=C(C(=O)O)N3C(=O)[C@@H](NC(=O)Cc4ccccc4)[C@H]3SC2)cc1.[I-] strictly below 0.2 µg/mL?
false (0)

Is the reported MIC for CCCCCCNC(=O)c1cc[n+](CC2=C(C(=O)OCc3ccc(OC)cc3)N3C(=O)[C@@H](NC(=O)Cc4ccccc4)[C@H]3SC2)cc1.[I-] strictly below 0.2 µg/mL?
false (0)

Is the reported MIC for CC(=O)OCC1=C(C(=O)O)N2C(=O)[C@@H](NC(=O)c3cc[n+](C)cc3)[C@H]2SC1.[I-] strictly below 0.2 µg/mL?
false (0)

Is the reported MIC for CCCCCCCCCCCCCCNC(=O)c1ccc[n+](CC2=C(C(=O)OCc3ccc(OC)cc3)N3C(=O)[C@@H](NC(=O)Cc4ccccc4)[C@H]3SC2)c1.[I-] strictly below 0.2 µg/mL?
false (0)

Is the reported MIC for CCCCCC[n+]1ccc(-c2cc[n+](CC3=C(C(=O)OCc4ccc(OC)cc4)N4C(=O)[C@@H](NC(=O)Cc5ccccc5)[C@H]4SC3)cc2)cc1.[I-].[I-] strictly below 0.2 µg/mL?
false (0)

Is the reported MIC for CCCCCCCCCCCCNC(=O)c1ccc[n+](CC2=C(C(=O)O)N3C(=O)[C@@H](NC(=O)Cc4ccccc4)[C@H]3SC2)c1.[I-] strictly below 0.2 µg/mL?
false (0)

Is the reported MIC for CC(=O)OCC1=C(C(=O)OC(c2ccccc2)c2ccccc2)N2C(=O)[C@@H](NC(=O)c3cc[n+](C)cc3)[C@H]2SC1.[I-] strictly below 0.2 µg/mL?
false (0)

Is the reported MIC for COc1ccc(COC(=O)C2=C(C[n+]3ccccc3)CS[C@@H]3[C@H](NC(=O)Cc4ccccc4)C(=O)N23)cc1.[I-] strictly below 0.2 µg/mL?
false (0)

Is the reported MIC for CCCCCCCC[n+]1ccc(-c2cc[n+](CC3=C(C(=O)[O-])N4C(=O)[C@@H](NC(=O)Cc5ccccc5)[C@H]4SC3)cc2)cc1.O=C([O-])C(F)(F)F strictly below 0.2 µg/mL?
true (1)

Is the reported MIC for CCCCCCCCNC(=O)c1ccc[n+](CC2=C(C(=O)O)N3C(=O)[C@@H](NC(=O)Cc4ccccc4)[C@H]3SC2)c1.[I-] strictly below 0.2 µg/mL?
true (1)

Is the reported MIC for O=C(Cc1ccccc1)N[C@@H]1C(=O)N2C(C(=O)O)=C(CSc3ccncc3)CS[C@H]12 strictly below 0.2 µg/mL?
true (1)

###

Test system: Staphylococcus aureus
PROCEDURE SUMMARY: Induction of cytoplasmic membrane depolarization in Staphylococcus aureus assessed as increase in fluorescence intensity at 16 ug/ml measured for 20 mins by DiSC3(5) dye based analysis
Format: functional, organism-based
CONDITION LABEL: dose 16.0 µg/ml
Active and inactive are the calls of the source. The rule behind the calls is not given here.
Permitted responses: 1.0 = active, 0.0 = inactive

See these solved cases before continuing.
1. CCCCCCCCNC(=O)c1cc[n+](CC2=C(C(=O)O)N3C(=O)[C@@H](NC(=O)Cc4ccccc4)[C@H]3SC2)cc1.[I-] 0.0
2. CCCCCCCCNC(=O)c1ccc[n+](CC2=C(C(=O)OCc3ccc(OC)cc3)N3C(=O)[C@@H](NC(=O)Cc4ccccc4)[C@H]3SC2)c1.[I-] 1.0
3. CCCCCCCCNC(=O)c1ccc[n+](CC2=C(C(=O)O)N3C(=O)[C@@H](NC(=O)Cc4ccccc4)[C@H]3SC2)c1.[I-] 0.0
4. CCCCCCCCCCNC(=O)c1ccc[n+](CC2=C(C(=O)O)N3C(=O)[C@@H](NC(=O)Cc4ccccc4)[C@H]3SC2)c1.[I-] 0.0
5. CCCCCCCCCCCCCCNC(=O)c1cc[n+](CC2=C(C(=O)O)N3C(=O)[C@@H](NC(=O)Cc4ccccc4)[C@H]3SC2)cc1.[I-] 0.0
6. CCCCCCCCCCCCNC(=O)c1cc[n+](CC2=C(C(=O)O)N3C(=O)[C@@H](NC(=O)Cc4ccccc4)[C@H]3SC2)cc1.[I-] 0.0
7. CCCCCCCCNC(=O)c1cc[n+](CC2=C(C(=O)OCc3ccc(OC)cc3)N3C(=O)[C@@H](NC(=O)Cc4ccccc4)[C@H]3SC2)cc1.[I-] 1.0
8. CCCCCCCCCCNC(=O)c1cc[n+](CC2=C(C(=O)OCc3ccc(OC)cc3)N3C(=O)[C@@H](NC(=O)Cc4ccccc4)[C@H]3SC2)cc1.[I-] 1.0
9. CCCCCCCCCCNC(=O)c1cc[n+](CC2=C(C(=O)O)N3C(=O)[C@@H](NC(=O)Cc4ccccc4)[C@H]3SC2)cc1.[I-] 0.0
10. CCCCCCCCCCCCNC(=O)c1ccc[n+](CC2=C(C(=O)O)N3C(=O)[C@@H](NC(=O)Cc4ccccc4)[C@H]3SC2)c1.[I-] 0.0

Hello, I am checking results. What call was entered for CCCCCCCCCCCCCCNC(=O)c1ccc[n+](CC2=C(C(=O)O)N3C(=O)[C@@H](NC(=O)Cc4ccccc4)[C@H]3SC2)c1.[I-] ?
0.0

Hello, I am checking results. What call was entered for CCCCCCCCCCNC(=O)c1ccc[n+](CC2=C(C(=O)OCc3ccc(OC)cc3)N3C(=O)[C@@H](NC(=O)Cc4ccccc4)[C@H]3SC2)c1.[I-] ?
1.0
